Cited source: patent US11306084B2

Tested on: Recombinant human integrin ανβ5 (Homo sapiens, UniProt P06756+P18084)
Construct: purchased R&D Systems 2528-AV
Sequence (P06756 31-992 limits assumed): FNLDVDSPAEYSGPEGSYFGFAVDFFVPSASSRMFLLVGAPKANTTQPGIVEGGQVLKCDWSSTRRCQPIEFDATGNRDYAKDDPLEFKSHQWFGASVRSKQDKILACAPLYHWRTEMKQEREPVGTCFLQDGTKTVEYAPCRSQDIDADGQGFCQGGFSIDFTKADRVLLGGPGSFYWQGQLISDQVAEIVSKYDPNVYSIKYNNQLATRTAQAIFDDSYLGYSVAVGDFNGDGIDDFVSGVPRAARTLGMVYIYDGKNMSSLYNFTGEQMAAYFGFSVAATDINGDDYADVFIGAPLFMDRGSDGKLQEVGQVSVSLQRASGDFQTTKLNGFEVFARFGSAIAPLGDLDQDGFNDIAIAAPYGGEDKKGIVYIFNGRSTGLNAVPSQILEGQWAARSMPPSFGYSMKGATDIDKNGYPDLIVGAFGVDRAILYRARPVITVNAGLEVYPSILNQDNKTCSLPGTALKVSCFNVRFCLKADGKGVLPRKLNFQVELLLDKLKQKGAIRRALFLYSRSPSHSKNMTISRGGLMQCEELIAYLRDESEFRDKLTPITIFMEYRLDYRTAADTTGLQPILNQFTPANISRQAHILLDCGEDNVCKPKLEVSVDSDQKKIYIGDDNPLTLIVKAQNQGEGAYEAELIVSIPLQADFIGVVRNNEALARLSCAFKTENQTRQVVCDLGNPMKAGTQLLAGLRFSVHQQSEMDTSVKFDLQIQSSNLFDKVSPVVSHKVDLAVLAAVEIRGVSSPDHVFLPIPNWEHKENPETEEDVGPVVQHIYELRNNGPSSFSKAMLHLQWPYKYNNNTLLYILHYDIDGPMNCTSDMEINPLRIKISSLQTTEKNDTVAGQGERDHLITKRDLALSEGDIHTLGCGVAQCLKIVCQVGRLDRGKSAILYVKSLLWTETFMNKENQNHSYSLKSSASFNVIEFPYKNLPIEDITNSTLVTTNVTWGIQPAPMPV
Sequence (P18084 24-719 limits assumed): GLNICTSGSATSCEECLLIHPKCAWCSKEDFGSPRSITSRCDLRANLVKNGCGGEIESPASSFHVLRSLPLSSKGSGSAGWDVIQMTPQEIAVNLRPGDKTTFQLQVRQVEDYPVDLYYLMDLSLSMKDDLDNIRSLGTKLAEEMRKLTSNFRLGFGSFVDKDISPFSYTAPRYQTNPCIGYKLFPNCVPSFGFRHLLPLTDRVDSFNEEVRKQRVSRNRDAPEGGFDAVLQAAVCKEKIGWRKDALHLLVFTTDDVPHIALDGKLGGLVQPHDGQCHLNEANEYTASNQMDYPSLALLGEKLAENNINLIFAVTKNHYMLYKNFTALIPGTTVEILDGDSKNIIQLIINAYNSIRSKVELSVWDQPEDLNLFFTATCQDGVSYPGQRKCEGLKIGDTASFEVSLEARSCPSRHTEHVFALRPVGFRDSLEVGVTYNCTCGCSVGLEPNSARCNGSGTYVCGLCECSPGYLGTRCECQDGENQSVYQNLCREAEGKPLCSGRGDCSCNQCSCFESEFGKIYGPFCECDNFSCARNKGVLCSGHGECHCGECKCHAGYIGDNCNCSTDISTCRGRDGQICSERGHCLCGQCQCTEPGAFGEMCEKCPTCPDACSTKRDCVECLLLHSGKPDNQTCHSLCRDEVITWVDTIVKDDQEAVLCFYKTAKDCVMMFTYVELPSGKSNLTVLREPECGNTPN
Experiment summary: Solid Phase Receptor Assay (SPRA) for ανβ5 function
Assay type: binding
Condition info: plate-bound human vitronectin; read-out: αvβ5 SPRA IC50

Compound | IC50
Cn1nc(CC(CC(=O)O)c2cccc(C#N)c2)cc1OCCc1ccc2c(n1)NCCC2 (stereo not shown) | 0.2 nM
COc1c(C(CC(=O)O)Cc2cc(OCCc3ccc4c(n3)NCCC4)n(C)n2)cccc1C(C)(C)C (stereo not shown) | 3.1 nM
Cn1nc(CC(CC(=O)O)c2cc(F)cc(C(C)(C)C(F)(F)F)c2)cc1OCCc1ccc2c(n1)NCCC2 (stereo not shown) | 0.2 nM
COc1ccc(C(C)(C)C)cc1C(CC(=O)O)Cc1cc(OCCc2ccc3c(n2)NCCC3)n(C)n1 (stereo not shown) | 280 nM
